- Assay Remarks: clinical
- Particulars: human, plasma, intravenous, 14 mg/m^2
Property Name: AUC(0-inf)
Write the numeric value and follow it with the unit.

C/C=C1\NC(=O)[C@H]2CSSCC/C=C/[C@H](CC(=O)N[C@H](C(C)C)C(=O)N2)OC(=O)[C@H](C(C)C)NC1=O has a reported AUC(0-inf) of 3070 ng·h/mL

###

- Assay Remarks: clinical
- Particulars: human, plasma, intravenous, 10 mg/m^2
Property Name: half-life (h)
Give the value, in units of h, as a plain number.

C/C=C1\NC(=O)[C@H]2CSSCC/C=C/[C@H](CC(=O)N[C@H](C(C)C)C(=O)N2)OC(=O)[C@H](C(C)C)NC1=O has a reported half-life of 4.94

###

- Assay Remarks: clinical
- Particulars: human, plasma, intravenous, 12 mg/m^2
Property Name: AUC(0-inf) (ng·h/mL)
Give the value, in units of ng·h/mL, as a plain number.

C/C=C1\NC(=O)[C@H]2CSSCC/C=C/[C@H](CC(=O)N[C@H](C(C)C)C(=O)N2)OC(=O)[C@H](C(C)C)NC1=O has a reported AUC(0-inf) of 3010

###

- Assay Remarks: clinical
- Particulars: human, plasma, intravenous, 14 mg/m^2
Property Name: half-life (h)
Give the value, in units of h, as a plain number.

C/C=C1\NC(=O)[C@H]2CSSCC/C=C/[C@H](CC(=O)N[C@H](C(C)C)C(=O)N2)OC(=O)[C@H](C(C)C)NC1=O has a reported half-life of 3.7

###

- Assay Remarks: clinical
- Particulars: human, plasma, intravenous, 8 mg/m^2
Property Name: Cmax (ng/mL)
Give the value, in units of ng/mL, as a plain number.

C/C=C1\NC(=O)[C@H]2CSSCC/C=C/[C@H](CC(=O)N[C@H](C(C)C)C(=O)N2)OC(=O)[C@H](C(C)C)NC1=O has a reported Cmax of 1110

###

- Assay Remarks: clinical
- Particulars: human, plasma, intravenous, 12 mg/m^2
Property Name: Cmax (ng/mL)
Give the value, in units of ng/mL, as a plain number.

C/C=C1\NC(=O)[C@H]2CSSCC/C=C/[C@H](CC(=O)N[C@H](C(C)C)C(=O)N2)OC(=O)[C@H](C(C)C)NC1=O has a reported Cmax of 2090

###

- Assay Remarks: clinical
- Particulars: human, plasma, intravenous, 8 mg/m^2
Property Name: half-life (h)
Give the value, in units of h, as a plain number.

C/C=C1\NC(=O)[C@H]2CSSCC/C=C/[C@H](CC(=O)N[C@H](C(C)C)C(=O)N2)OC(=O)[C@H](C(C)C)NC1=O has a reported half-life of 4.82
